As shown below, each of these sequences has a reported cleaved RNA product abundance value.
System: Bacillus subtilis
TEST DESCRIPTION: cleaved RNA product abundance (RNA/gDNA barcode ratio) relative to median wild-type variant (ratio to wild type); higher = more accumulation of the downstream cleavage product
MEASUREMENT PARAMETERS: experiment (reporter, strain, medium): exp 4a: truncated aprE reporter, strain BJT201 with 2% xylose (RNase J1 expressed); cleavage site: cggR-gapA (positions -7 to +36 mutated)

{"RESIDUE SEQUENCE": "ACAGACGAAGGAGCCGCAAATAAGTTATTAAGGGATGAATAAGCCCTCAATATAAATATCTCTCACTTATTTAAA", "cleaved RNA product abundance": 0.476}
{"RESIDUE SEQUENCE": "ACAGACGAAGGAGCCGCAAAGAAGTTATTAAGGGATGAATAACCCTTCAATATAAATATCTCTCACTTATTTAAA", "cleaved RNA product abundance": 0.346}
{"RESIDUE SEQUENCE": "ACAGACGAAGGAGCCGCAAAGAAGTTCTTAAAGGATGAATAATCCCTCAATATAAATATCTCTCACTTATTTAAA", "cleaved RNA product abundance": 0.112}
{"RESIDUE SEQUENCE": "ACAGACGAAGGAGCCGCAAAGAAGTTATTAAGGGATAAATAATCCCTGAATATAAATATCTCTCACTTATTTAAA", "cleaved RNA product abundance": 0.734}
{"RESIDUE SEQUENCE": "ACAGACGAAGGAGCCGCAAAGAAGTGATTAAGGGATGAATAATCCCTCAATATAAATAACTCTCACTTATTTAAA", "cleaved RNA product abundance": 0.522}
